Tested on: human ovarian cancer SK-OV-3
Details: D22; 24 mg/kg (paclitaxel 16 mg/kg) D0-4 IV
measurement.label: T/C (%) D22

INSERT INTO results (molecule, measured) VALUES
  ('CCN(C)CC[C@@H](F)C(=O)O[C@@H](C(=O)O[C@H]1C[C@@]2(O)[C@@H](OC(=O)c3ccccc3)[C@@H]3[C@]4(OC(C)=O)CO[C@@H]4C[C@H](O)[C@@]3(C)C(=O)[C@H](OC(C)=O)C(=C1C)C2(C)C)[C@@H](NC(=O)c1ccccc1)c1ccccc1.CS(=O)(=O)O [Compound 16]', '−53'),
  ('CC(=O)O[C@H]1C(=O)[C@@]2(C)[C@H]([C@H](OC(=O)c3ccccc3)[C@]3(O)C[C@H](OC(=O)[C@H](OC(=O)C(CCN(C)C)C(F)F)[C@@H](NC(=O)c4ccccc4)c4ccccc4)C(C)=C1C3(C)C)[C@]1(OC(C)=O)CO[C@@H]1C[C@@H]2O.Cl (stereo partly shown) [Compound 20]', '−35'),
  ('CC(=O)OC1C(=O)C2(C)C(O)CC3OCC3(OC(C)=O)C2C(OC(=O)c2ccccc2)C2(O)CC(OC(=O)C(OC(=O)C(CCCCN(C)C)C(F)F)C(NC(=O)c3ccccc3)c3ccccc3)C(C)=C1C2(C)C.O=S(=O)(O)O (stereo not shown) [Compound 22]', '−14'),
  ('CC(=O)OC1C(=O)C2(C)C(O)CC3OCC3(OC(C)=O)C2C(OC(=O)c2ccccc2)C2(O)CC(OC(=O)C(OC(=O)C(CCN(C)C)C(F)(F)F)C(NC(=O)c3ccccc3)c3ccccc3)C(C)=C1C2(C)C.Cc1ccc(S(=O)(=O)O)cc1 (stereo not shown) [Compound 19]', '−48'),
  ('CC(=O)O[C@H]1C(=O)[C@@]2(C)[C@H]([C@H](OC(=O)c3ccccc3)[C@]3(O)C[C@H](OC(=O)[C@H](OC(=O)[C@@H](F)CCN(C)C)[C@@H](NC(=O)c4ccccc4)c4ccccc4)C(C)=C1C3(C)C)[C@]1(OC(C)=O)CO[C@@H]1C[C@@H]2O.CS(=O)(=O)O [Compound C2]', '−61'),
  ('CC(=O)O[C@H]1C(=O)[C@@]2(C)[C@H]([C@H](OC(=O)c3ccccc3)[C@]3(O)C[C@H](OC(=O)[C@H](OC(=O)C(F)CCN(C)C)[C@@H](NC(=O)c4ccccc4)c4ccccc4)C(C)=C1C3(C)C)[C@]1(OC(C)=O)CO[C@@H]1C[C@@H]2O.CS(=O)(=O)O (stereo partly shown) [Compound C3]', '−64'),
  ('CC(=O)O[C@H]1C(=O)[C@@]2(C)[C@H]([C@H](OC(=O)c3ccccc3)[C@]3(O)C[C@H](OC(=O)[C@H](OC(=O)C(F)CCN(C)C(C)C)[C@@H](NC(=O)c4ccccc4)c4ccccc4)C(C)=C1C3(C)C)[C@]1(OC(C)=O)CO[C@@H]1C[C@@H]2O.Cl (stereo partly shown) [Compound 18]', '−38');

###

This listing pairs molecules with measured dissociation percent.
Assay: In vitro dissociation of the water soluble taxane derivatives in blood plasma of rabbit
Type: in vitro ADME, New Zealand white rabbits
Conditions: 37° C., 60 min
Method: The obtained water soluble taxane derivatives were formulated as 0.2 mg/ml aqueous solutions. […] After 5 min, 20 min and 60 min of incubation, 0.2 ml of solutions were respectively taken from each of the samples, and added to acetonitrile (0.4 ml) cooled to −20° C. for precipitation of protein.
measurement.label: dissociation percent (%)

INSERT INTO results (molecule, measurement_label, measured) VALUES
  ('CC(=O)O[C@H]1C(=O)[C@@]2(C)[C@H]([C@H](OC(=O)c3ccccc3)[C@]3(O)C[C@H](OC(=O)[C@H](OC(=O)C(F)CCN(C)C)[C@@H](NC(=O)c4ccccc4)c4ccccc4)C(C)=C1C3(C)C)[C@]1(OC(C)=O)CO[C@@H]1C[C@@H]2O.Cl (some centres unmarked)', 'dissociation percent', 100),
  ('CC(=O)O[C@H]1C(=O)[C@@]2(C)[C@H]([C@H](OC(=O)c3ccccc3)[C@]3(O)C[C@H](OC(=O)[C@H](OC(=O)[C@@H](F)CCN(C)C)[C@@H](NC(=O)c4ccccc4)c4ccccc4)C(C)=C1C3(C)C)[C@]1(OC(C)=O)CO[C@@H]1C[C@@H]2O.CS(=O)(=O)O', 'dissociation percent', 100),
  ('CC(=O)OC12COC1CC(O)C1(C)C(=O)C(O)C3=C(C)C(OC(=O)C(OC(=O)C(F)CCN(C)C)C(NC(=O)OC(C)(C)C)c4ccccc4)CC(O)(C(OC(=O)c4ccccc4)C21)C3(C)C.Cl (centres unmarked)', 'dissociation percent', 100),
  ('CC(=O)O[C@H]1C(=O)[C@@]2(C)[C@H]([C@H](OC(=O)c3ccccc3)[C@]3(O)C[C@H](OC(=O)[C@H](OC(=O)[C@@H](F)CCN(C)C)[C@@H](NC(=O)c4ccccc4)c4ccccc4)C(C)=C1C3(C)C)[C@]1(OC(C)=O)CO[C@@H]1C[C@@H]2O.Cl', 'dissociation percent', 100),
  ('CC(=O)O[C@@]12CO[C@@H]1C[C@H](O)[C@@]1(C)C(=O)[C@H](O)C3=C(C)[C@@H](OC(=O)[C@H](OC(=O)[C@H](F)CCN(C)C)[C@@H](NC(=O)OC(C)(C)C)c4ccccc4)C[C@@](O)([C@@H](OC(=O)c4ccccc4)[C@H]21)C3(C)C.CS(=O)(=O)O', 'dissociation percent', 100),
  ('CO[C@H]1C(=O)[C@]2(C)[C@@H](OC)C[C@H]3OC[C@@]3(OC(C)=O)[C@H]2[C@H](OC(=O)c2ccccc2)[C@]2(O)C[C@H](OC(=O)[C@H](OC(=O)C(F)CCN(C)C)[C@@H](NC(=O)OC(C)(C)C)c3ccccc3)C(C)=C1C2(C)C.CS(=O)(=O)O (some centres unmarked)', 'dissociation percent', 100),
  ('COC1C(=O)C2(C)C(OC)CC3OCC3(OC(C)=O)C2C(OC(=O)c2ccccc2)C2(O)CC(OC(=O)C(OC(=O)C(F)CCN(C)C)C(NC(=O)OC(C)(C)C)c3ccccc3)C(C)=C1C2(C)C.Cl (centres unmarked)', 'dissociation percent', 100),
  ('CC(=O)O[C@@]12CO[C@@H]1C[C@H](O)[C@@]1(C)C(=O)[C@H](O)C3=C(C)[C@@H](OC(=O)[C@H](OC(=O)[C@@H](F)CCN(C)C)[C@@H](NC(=O)OC(C)(C)C)c4ccccc4)C[C@@](O)([C@@H](OC(=O)c4ccccc4)[C@H]21)C3(C)C.Cl', 'dissociation percent', 100);
